Measured growth at 10 µM values are reported for all entries that follow.
# Test system: HT-29
# protocol summary: Cytotoxicity against human HT-29 cells assessed as cell growth at 10 uM
# Format: functional
# details: Homo sapiens, HT-29; read-out: Activity
Entry rule: numbers only, all in %.

The cases that follow already have their growth at 10 µM on record.
c1ccc(-c2ccc(-c3ccnc(Nc4ccc(N(c5ccccc5)c5ccccc5)cc4)n3)cn2)cc1 89.5
CC(=O)c1ccccc1-c1ccc(-c2ccnc(NC(=O)Nc3cc(N4CCOCC4)cc(C(F)(F)F)c3)n2)cn1 33.1
FC(F)(F)c1cc(Nc2nccc(-c3ccc(-c4ccccc4)nc3)n2)cc(C(F)(F)F)c1 86
Cc1ccc(Nc2nc(C)cc(-c3cccnc3)n2)c(C)c1 96.8
O=C(Nc1cc(C(F)(F)F)cc(C(F)(F)F)c1)Nc1nccc(-c2ccc(Nc3ccccc3)nc2)n1 94.4
CC(=O)c1ccc(-c2ccc(-c3ccnc(Nc4cc(C(F)(F)F)cc(C(F)(F)F)c4)n3)cn2)cc1 105

Query :: Provide the documented growth at 10 µM with HT-29 as the system for CC(=O)Nc1cccc(-c2ccc(-c3ccnc(NC(=O)Nc4cc(C(F)(F)F)cc(C(F)(F)F)c4)n3)cn2)c1.Cl
Result :: 9.2

Query :: Provide the documented growth at 10 µM with HT-29 as the system for CC(=O)c1ccccc1-c1ccc(-c2ccnc(NC(=O)Nc3cc(C(F)(F)F)cc(C(F)(F)F)c3)n2)cn1
Result :: 96.3

Query :: Provide the documented growth at 10 µM with HT-29 as the system for FC(F)(F)c1cc(Nc2nccc(-c3cccnc3)n2)cc(C(F)(F)F)c1
Result :: 92.1

Query :: Provide the documented growth at 10 µM with HT-29 as the system for FC(F)(F)c1cc(Nc2nccc(-c3ccc(Nc4ccccc4)nc3)n2)cc(C(F)(F)F)c1
Result :: 99.8

Query :: Provide the documented growth at 10 µM with HT-29 as the system for Cc1cc(-c2cccnc2)nc(NC(=O)c2cccc(C(F)(F)F)c2)n1
Result :: 98.9

Ref: ChEMBL document CHEMBL1165943
